Recorded values, source patent US20260373266A1.

- TEST_SYSTEM: DCAF1 WD40 domain (residues 1077-1390) (Homo sapiens, UniProt Q9Y4B6)
- Construct: DCAF1 WD40 domain (residues 1077-1390)
- Sequence (Q9Y4B6 1077-1390): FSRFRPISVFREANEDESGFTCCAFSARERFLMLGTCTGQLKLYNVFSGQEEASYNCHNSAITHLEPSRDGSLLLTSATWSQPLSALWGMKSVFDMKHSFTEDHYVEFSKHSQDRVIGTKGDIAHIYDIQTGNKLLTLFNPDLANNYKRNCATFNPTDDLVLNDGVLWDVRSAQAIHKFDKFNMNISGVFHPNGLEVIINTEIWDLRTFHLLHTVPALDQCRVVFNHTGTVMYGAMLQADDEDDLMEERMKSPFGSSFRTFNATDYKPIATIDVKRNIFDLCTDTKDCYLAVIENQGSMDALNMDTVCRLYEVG
- ASSAY: DCAF1 binding assay by SPR (Biacore 8K+), DCAF1-3 KD
- ASSAY_CONDITIONS: 25 °C, read-out: DCAF1-3 SPR (KD)
I'd be grateful if you could share measured Kd for these entries.

MOLECULE | Kd
C[C@@H](O)c1cncc(N2CCC[C@@H](Nc3cc(N4CCOCC4)ccn3)C2)c1 [I-484] | > 200 µM
NCCCCCCCCCCCCCCCCCC(=O)c1[nH]cc(C(=O)N[C@@H](CC(N)=O)c2cccc(Cl)c2)c1-c1ccccc1F [I-662] | > 200 µM

Q. Returns the measured Kd for the input molecule. Input: Fc1cccc(N2CCCC(Nc3nccc(N4CCNCC4)n3)C2)c1 (stereo not drawn) [I-23]
A. > 200 µM

----------
So I've got a bunch of compounds here, and I need their pKd values.
- TEST_SYSTEM: DCAF1 WD40 domain (residues 1077-1390) (Homo sapiens)
- Construct: DCAF1 WD40 domain (residues 1077-1390)
- ASSAY: DCAF1 binding assay by SPR (Biacore 8K+), DCAF1-3 KD
- ASSAY_CONDITIONS: 25 °C, read-out: DCAF1-3 SPR (KD)
pKd: −log10 of the molar value.

Here is how some compounds turned out for pKd.
COMPOUND | QUANTITY_KIND | ENDPOINT_RESULT
Cc1cccc(C(=O)c2[nH]cc(C(=O)N[C@@H](CC(N)=O)c3cccc(Cl)c3)c2-c2c(C)cccc2F)c1 | pKd | > 5.00
NCC(=O)N1CC2(CCCN(c3cccc(F)c3)C2)Nc2cc(N3CCCCC3)ncc21 (centres unmarked) | pKd | 4.00 to 5.00
Cc1c(F)ccc(F)c1-c1c(C(=O)N[C@@H](CC(N)=O)c2cccc(Cl)c2)cn(C(C)C)c1C#N | pKd | > 5.00

# return pKd for each item in the list
1. Oc1cnc(N[C@@H]2CCCN(c3cccc(F)c3)C2)cc1N1CCOCC1
2. Cc1c(F)ccc(F)c1-c1c(C(=O)N[C@@H](CC(N)=O)c2cccc(Cl)c2)cn(C)c1C(=O)c1ccc(OCCOCCOCCN)cc1
3. Fc1cccc(N2CCC[C@@H](N(c3ccncc3)c3cc(N4CCOCC4)ccn3)C2)c1

A.
1. < 3.70
2. > 5.00
3. < 3.70

I have 2 compounds here; please give me pKd for each one.
1. CCc1cccc([C@H](CC(N)=O)NC(=O)c2cn[nH]c2-c2ccccc2F)c1
2. Cc1c(F)ccc(F)c1-c1c(C(=O)N[C@@H](CC(N)=O)c2cccc(Cl)c2)cn(C)c1C(=O)c1ccc(C#CCOC2CCNCC2)cc1

A.
1: < 3.70; 2: > 5.00

----------
- TEST_SYSTEM: DCAF1 WD40 domain (residues 1077-1390) (Homo sapiens, UniProt Q9Y4B6)
- Construct: DCAF1 WD40 domain (residues 1077-1390)
- ASSAY: DCAF1 binding assay by SPR (Biacore 8K+), DCAF1-3 KD
- ASSAY_CONDITIONS: 25 °C, read-out: DCAF1-3 SPR (KD)
pKd: −log10 of the molar value.
QUANTITY_KIND: pKd

MOLECULE | pKd
Cc1cccc(N2CCC[C@@H](Nc3cc(N4CCOCC4)ccn3)C2)c1 [I-510] | 3.70 to 4.00
Fc1cccc(N2CCC[C@@H](Cc3cc(N4CCOCC4)[nH]n3)C2)c1 [I-631] | < 3.70

// for each molecule below, give its pKd
1. c1cnc2ccc(N3CCC[C@@H](Nc4nccc(N5CCOCC5)n4)C3)cc2c1 [I-56]
2. NC(=O)C[C@H](NC(=O)c1c[nH]nc1-c1ccccc1O)c1cccc(Cl)c1 [I-229]
3. Cc1sc2c(c1C)C(c1ccc(Cl)cc1)=N[C@@H](CC(=O)NCCOCCOCCOCCOCCOCCOCCn1cc(C(=O)N[C@@H](CC(N)=O)c3cccc(Cl)c3)c(-c3ccccc3F)n1)c1nnc(C)n1-2 [I-889]
4. C=CC(=O)NCc1n[nH]cc1C(=O)N[C@@H](CC(N)=O)c1cccc(Cl)c1 [I-467]

A.
< 3.70
< 3.70
< 3.70
< 3.70

Give measured pKd for every item shown.
1. C=CC(=O)N(CCCCN1CCN(c2ccnc(N[C@@H]3CCCN(c4cccc(F)c4)C3)c2)CC1)CCOCCOCCNC(=O)C[C@@H]1N=C(c2ccc(Cl)cc2)c2c(sc(C)c2C)-n2c(C)nnc21 [I-904]
2. O=c1[nH]cc(C2CCOCC2)cc1N[C@@H]1CCCN(c2cccc(F)c2)C1 [I-646]
3. C[C@H]1CCCCN1c1ccnc(N2CC[C@H]3[C@@H]2CCCN3c2cccc(F)c2)c1 [I-644]
4. Cc1sc2c(c1C)C(c1ccc(Cl)cc1)=N[C@@H](CC(=O)NCCOCCOCCOCCOCCCc1ccc(C(=O)c3[nH]cc(C(=O)N[C@@H](CC(=O)N4CCNCC4)c4cccc(Cl)c4)c3-c3c(F)ccc(F)c3C)cc1)c1nnc(C)n1-2 [I-913]
5. NCCNc1cnc(N2CCCCC2)nc1N[C@@H]1CCCN(c2cccc(F)c2)C1 [I-1014]
6. CC(=O)Nc1ccc(N2CCC[C@H]3[C@@H]2CCN3c2cc(N3CCCCC3)ccn2)cc1F [I-747]

A.
1: 4.00 to 5.00; 2: 4.00 to 5.00; 3: 4.00 to 5.00; 4: > 5.00; 5: 4.00 to 5.00; 6: < 3.70
